- tested_target: Tyrosine-protein phosphatase non-receptor type 5 (Homo sapiens)
- Sequence (P54829 whole entry): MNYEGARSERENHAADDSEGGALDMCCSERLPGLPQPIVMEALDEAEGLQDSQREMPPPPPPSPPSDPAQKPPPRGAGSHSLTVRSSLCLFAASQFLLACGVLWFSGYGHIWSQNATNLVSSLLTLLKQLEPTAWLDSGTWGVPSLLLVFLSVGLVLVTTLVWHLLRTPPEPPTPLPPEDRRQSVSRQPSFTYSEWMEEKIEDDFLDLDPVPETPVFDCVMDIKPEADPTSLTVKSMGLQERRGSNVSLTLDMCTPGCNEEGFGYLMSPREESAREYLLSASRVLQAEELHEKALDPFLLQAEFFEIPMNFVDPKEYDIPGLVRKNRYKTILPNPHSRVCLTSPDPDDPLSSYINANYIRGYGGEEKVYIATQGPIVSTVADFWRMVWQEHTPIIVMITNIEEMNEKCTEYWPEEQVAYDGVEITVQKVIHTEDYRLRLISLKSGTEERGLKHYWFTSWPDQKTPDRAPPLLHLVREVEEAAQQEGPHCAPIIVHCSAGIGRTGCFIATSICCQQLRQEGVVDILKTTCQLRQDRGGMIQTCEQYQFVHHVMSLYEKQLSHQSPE
- method: Inhibition of STEP (unknown origin) pre-incubated for 10 mins before addition of p-nitrophenyl phosphate substrate in absence of GSH
pIC50: −log10 of the molar value.

chem_smiles: O=C(Nc1cc(C(F)(F)F)cc2c1SSSSS2)C(F)(F)F
tested_target: Tyrosine-protein phosphatase non-receptor type 5 (Homo sapiens)
pIC50: 7.62

Value source: ChEMBL document CHEMBL3397020
